Where do these numbers come from? They come from the Immune Epitope Database (IEDB).

Target: HLA-A*11:01
Experiment: IEDB peptide-MHC binding, purified MHC/direct/fluorescence; filed as Kd, often an IC50 or EC50 that approximates it; bounds were set here for any values at or beyond the usual limits of such assays
Conditions: source organism: Mycobacterium tuberculosis variant bovis BCG str. Pasteur 1173P2
value_kind: Kd

## Input Please give the measured Kd for this sequence: "HPTSRRELL"
## Output ≥ 20 µM

* * *

Target: HLA-A*23:01
Experiment: IEDB peptide-MHC binding, purified MHC/competitive/radioactivity; filed as Kd, often an IC50 or EC50 that approximates it; bounds were set here for any values at or beyond the usual limits of such assays
Settings: source organism: Triticum aestivum
value_kind: pKd
Give bare numbers, as −log10 of the molar value.

## Input Give its pKd value. Item: "QFPGQQQPF"
## Output 4.70
